# Test system: SR leukemia
# assay method text: NCI-60 one-dose screen, 48 h
# assay setup: 10 µM
# Procedure: Growth inhibition of the SR human tumor cell line is measured as a screen for anti-cancer activity. Cells are grown in 96 well plates and exposed to the test compound for 48 hours. Compounds are tested at a single concentration, which is 10^-5 M for most compounds. The reported endpoint is percent growth (GI% or GIPRCNT), where numbers from 0 - 100% represent growth inhibition, and numbers from -100% - 0 represent cell death. For example, a value of 40 represents 60% growth inhibition. […]
The panel holds about 83,000 compounds, 20% with a hit somewhere; the sample as a whole holds those more often. The source made the active and inactive calls. The calls were made as follows: active = growth percent below 10; inactive = the rest.
Log the outcome using a class from label 1 (active), label 0 (inactive)

Some solved entries appear below for comparison.
- compound: "C/C(=N/NC(=O)c1sc(=S)n(C)c1N)c1cc2cc(Cl)ccc2o1"
  class assignment: "label 0"
- compound: "COC1OC2COC(c3ccccc3)OC2C(=O)C1NC(=O)c1ccccc1 (stereo not given)"
  class assignment: "label 0"
- compound: "CCN(Cc1ccccc1)C1CCN(Cc2cc(Br)ccc2O)CC1"
  class assignment: "label 1"

Hi team, can someone confirm the assay call for CCOC(=O)CNC(=O)Nc1ccc(Oc2ccc(NC(=O)NCC(=O)OCC)cc2)cc1 ?
label 0

Hi team, can someone confirm the assay call for COc1ccc(-c2nc3sc(-c4ccccc4)c(-c4ccccc4)n3c2/C=C/c2ccc(F)cc2)cc1 ?
label 0

Hi team, can someone confirm the assay call for Cc1cc(C)c(/C=C2\C(=O)Nc3ccc(NC(=O)CCCCCCC(=O)NO)cc32)[nH]1 ?
label 0

Hi team, can someone confirm the assay call for O=C(O)CCCCSCCCCC(=O)O ?
label 0

Hi team, can someone confirm the assay call for Nc1cc(O)cc(O)c1 ?
label 0

---

# System: SNB-75 CNS
# assay method text: NCI-60 one-dose screen, 48 h (100 = growth as untreated, 0 = no growth, -100 = all killed)
# assay setup: 10 µM
The panel holds about 83,000 compounds, 20% with a hit somewhere; the sample as a whole holds those more often.
assay metric: growth (%)
The reply should be a number in %, with the unit left off.

These recorded examples may help you get a feel for the data.
- molecule smiles: "N#C/C(=C\\N1C(=O)/C(=C/c2cccc([N+](=O)[O-])c2)SC1=S)c1nc2ccccc2s1"
  assay metric: "growth"
  readout unit: "%"
  value: 82.5
- molecule smiles: "O=C(Nc1ccc(OCc2nnc(-c3ccccc3)o2)c(F)c1)Nc1ccc(Cl)c(Cl)c1"
  assay metric: "growth"
  readout unit: "%"
  value: 66.4
- molecule smiles: "C[C@]12CC[C@H]3[C@@H](CC=C4C[C@@H](O)CC[C@@]43C)[C@@H]1CC[C@@H]2C(=O)C/C=N/O"
  assay metric: "growth"
  readout unit: "%"
  value: 85.4
- molecule smiles: "O=NN(CCCl)C(=O)Nc1ccc(NC(=O)N(CCCl)N=O)cc1"
  assay metric: "growth"
  readout unit: "%"
  value: 64

Moving on to the next compound.
GET /value?item= Cc1cn(C(=O)/C(Cl)=C(/Cl)C(=O)O)c2ccccc12 &field=growth returns 73

---

# Test system: IGROV1 ovarian
# assay method text: NCI-60 one-dose screen, 48 h (100 = growth as untreated, 0 = no growth, -100 = all killed)
# assay setup: 10 µM
This is part of a sample that, as a whole, favours compounds with a hit. Of some 83,000 tested, about 20% had one in any assay. The source made the active and inactive calls. Rule for the calls: active = growth percent below 10; inactive = the rest.
assay metric: growth

These recorded examples may help you get a feel for the data.
- molecule smiles: "O=c1oc2cc(OS(=O)(=O)C3CC3)ccc2c2c1CCCCCC2"
  growth: "103% (inactive)"
- molecule smiles: "CS(=O)(=O)Nc1ccc([N+](=O)[O-])cc1Oc1ccccc1"
  growth: "106% (inactive)"

Moving on to the next compound.
GET /value?item= C=CCn1c(C)nc2cc(Nc3nc(Nc4ccc5nc(C)n(CC=C)c5c4)c4ccccc4n3)ccc21 &field=growth returns -93.8% (active)
